Just for reference, PubChem BioAssay AID248 is where these values come from.

test system: L1210 leukemia ip in BDF1 mice, survival T/C; assay: NCI In Vivo Anticancer Drug Screen. Data for tumor model L1210 Leukemia (intraperitoneal) in B6D2F1 (BDF1) mice; details: endpoint: mean survival time; dose: 50.0 mg/kg/injection; schedule: Q01DX009 (ip); vehicle: saline; higher = longer survival
Toxic doses and inconclusive results are not listed.
Reported T/C values are given for each entry in this list.

{"compound-structure-string": "O=C(O)C(CCl)(CCl)CCl", "T/C": "106 % of control"}
{"compound-structure-string": "C=C(Br)C(C)(C)C", "T/C": "101 % of control"}
{"compound-structure-string": "CCCCNP(=O)(OCC)OCC", "T/C": "104 % of control"}
{"compound-structure-string": "CCN(CC)CCOc1ccc(C)cc1", "T/C": "97 % of control"}
{"compound-structure-string": "CC(=O)c1ccc[n+](C)c1", "T/C": "102 % of control"}
{"compound-structure-string": "CCN(CC)CCCNc1cc(Cl)c(Cl)cc1[N+](=O)[O-]", "T/C": "91 % of control"}
